// provenance: patent US8558011B2

# system-name: canine TRPM8 (Canis lupus familiaris, UniProt Q1A7N1)
# Sequence (Q1A7N1 1-1104): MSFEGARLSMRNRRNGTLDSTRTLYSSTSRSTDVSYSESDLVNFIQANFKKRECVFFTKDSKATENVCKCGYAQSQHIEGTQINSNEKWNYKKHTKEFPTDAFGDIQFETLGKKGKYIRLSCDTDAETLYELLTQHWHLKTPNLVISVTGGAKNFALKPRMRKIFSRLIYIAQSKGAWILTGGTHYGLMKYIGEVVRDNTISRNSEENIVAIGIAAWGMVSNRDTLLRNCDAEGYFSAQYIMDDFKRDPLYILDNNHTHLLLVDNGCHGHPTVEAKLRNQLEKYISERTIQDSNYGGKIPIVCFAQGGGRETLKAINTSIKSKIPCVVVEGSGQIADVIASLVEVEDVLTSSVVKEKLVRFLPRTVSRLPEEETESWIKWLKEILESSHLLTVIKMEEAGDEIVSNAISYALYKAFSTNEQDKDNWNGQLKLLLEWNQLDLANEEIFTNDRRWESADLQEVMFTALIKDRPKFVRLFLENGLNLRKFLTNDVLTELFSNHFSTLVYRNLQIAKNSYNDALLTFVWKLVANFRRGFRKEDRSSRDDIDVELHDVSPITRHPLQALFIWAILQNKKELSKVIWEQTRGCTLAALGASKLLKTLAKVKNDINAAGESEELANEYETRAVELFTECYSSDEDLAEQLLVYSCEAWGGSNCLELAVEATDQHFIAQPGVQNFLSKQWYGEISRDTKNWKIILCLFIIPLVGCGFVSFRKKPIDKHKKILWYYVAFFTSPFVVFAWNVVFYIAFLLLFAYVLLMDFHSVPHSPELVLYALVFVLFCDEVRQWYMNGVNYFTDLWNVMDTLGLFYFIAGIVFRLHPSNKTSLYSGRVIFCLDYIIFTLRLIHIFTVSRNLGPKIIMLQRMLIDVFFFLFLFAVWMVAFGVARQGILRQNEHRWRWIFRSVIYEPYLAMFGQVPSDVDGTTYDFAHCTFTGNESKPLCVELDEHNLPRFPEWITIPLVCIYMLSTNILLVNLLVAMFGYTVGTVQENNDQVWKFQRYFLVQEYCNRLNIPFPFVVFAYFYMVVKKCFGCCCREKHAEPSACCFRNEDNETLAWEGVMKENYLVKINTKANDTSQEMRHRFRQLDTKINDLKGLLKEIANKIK
# experiment-notes: In Vitro Canine TRPM8 Functional Assay (Ca2+-sensitive fluorescent dye, icilin activation, FLIPR/FDSS)
# condition-parameters: HEK293 cells stably expressing canine TRPM8, icilin activation; eight-point dose-response
pIC50: −log10 of the molar value.
Respond with label 1 for pIC50 values of 7 and above, label 0 for values below.

>>> print(df.to_string())
                                   compound                               system_name    label
0  CCOP(=O)(OCC)C(Cc1ccc(F)c(Cl)c1)c1sc2ccccc2c1Cl (centres unmarked) [Cpd 297]  canine TRPM8 (Canis lupus familiaris, UniProt Q1A7N1)  label 1
1  CCOP(=O)(OCC)C(Cc1ccc(F)c(C(F)(F)F)c1)c1sc2cccc(F)c2c1Br (centres unmarked) [Cpd 223]  canine TRPM8 (Canis lupus familiaris, UniProt Q1A7N1)  label 1
2  CC(C)OP(=O)(OC(C)C)C(Cc1cc(C(F)(F)F)cc(C(F)(F)F)c1)c1sc2ccccc2c1Cl (centres unmarked) [Cpd 171]  canine TRPM8 (Canis lupus familiaris, UniProt Q1A7N1)  label 0
3  CCOP(=O)(OCC)C(Cc1ccc(C(F)(F)F)c(F)c1)c1sc2ccccc2c1Br (centres unmarked) [Cpd 144]  canine TRPM8 (Canis lupus familiaris, UniProt Q1A7N1)  label 1
4  CCOP(=O)(OCC)C(Cc1ccc(OC(F)(F)F)c(Cl)c1)c1sc2ccccc2c1Br (centres unmarked) [Cpd 149]  canine TRPM8 (Canis lupus familiaris, UniProt Q1A7N1)  label 1
5  CCOP(=O)(OCC)C(Cc1ccc(F)c(F)c1)c1sc2cccc(F)c2c1Br (centres unmarked) [Cpd 224]  canine TRPM8 (Canis lupus familiaris, UniProt Q1A7N1)  label 1

Lookup: Quick check: does CCOP(=O)(OCC)C(Cc1cccc(F)c1F)c1sc2ccccc2c1C (racemic) [Cpd 10] have pIC50 greater than or equal to 7?
Found: label 1

Lookup: Quick check: does CCOP(=O)(OCC)C(Cc1cc(Cl)ccc1Cl)c1sc2ccccc2c1C (racemic) [Cpd 47] have pIC50 greater than or equal to 7?
Found: label 0
